Origin of the recorded values: patent US10479780B2

SYSTEM: human Src enzyme (Homo sapiens)
Construct: purchased Carna Biosciences, Inc. 08-173
Sequence (P12931 whole entry): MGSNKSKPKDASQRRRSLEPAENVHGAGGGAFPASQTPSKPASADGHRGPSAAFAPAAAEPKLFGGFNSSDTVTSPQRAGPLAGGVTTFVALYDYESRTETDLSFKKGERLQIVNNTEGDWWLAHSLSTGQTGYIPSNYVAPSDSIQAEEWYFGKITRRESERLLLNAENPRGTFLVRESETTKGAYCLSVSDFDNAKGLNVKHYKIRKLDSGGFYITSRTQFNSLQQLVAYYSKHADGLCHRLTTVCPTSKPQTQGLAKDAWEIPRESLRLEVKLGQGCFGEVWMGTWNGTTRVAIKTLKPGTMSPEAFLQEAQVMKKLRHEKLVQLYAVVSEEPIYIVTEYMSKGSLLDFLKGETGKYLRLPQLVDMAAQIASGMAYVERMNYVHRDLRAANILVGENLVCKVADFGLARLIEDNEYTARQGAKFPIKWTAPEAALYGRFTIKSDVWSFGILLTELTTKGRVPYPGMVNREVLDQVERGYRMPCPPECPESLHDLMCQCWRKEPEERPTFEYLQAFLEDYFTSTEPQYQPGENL
EXPERIMENT: Src enzyme inhibitory activity (time-resolved fluorometry, biotinylated peptide phosphorylation)
Format: biochemical
STUDY_CONDITIONS: biotinylated peptide phosphorylation, read-out: SRC_IC50
For each of the molecules below, state its pIC50.
One number for each entry, as −log10 of the molar value.

Look over these answered cases.
substance_smiles=Cc1cnc(F)c(S(=O)(=O)Nc2cc3[nH]c(C(=O)c4cnn(-c5cnc(Oc6ccccc6F)cc5C)c4N)cc3cc2F)c1 system="human Src enzyme (Homo sapiens)" observed_value=6.24
substance_smiles=Cc1cc(Oc2ccccc2Cl)ncc1-n1ncc(C(=O)c2cc3cc(F)c(NS(=O)(=O)C4CC4)cc3[nH]2)c1N system="human Src enzyme (Homo sapiens)" observed_value=6.96
substance_smiles=Cc1cc2cc(C(=O)c3cnn(-c4cnc(Oc5ccccc5F)cc4C)c3N)[nH]c2cc1NS(=O)(=O)c1cccc(C(F)(F)F)n1 system="human Src enzyme (Homo sapiens)" observed_value=6.21
substance_smiles=Cc1cc(Oc2c(F)cccc2F)ncc1-n1ncc(C(=O)c2cc3cc(OCC(F)F)c(NS(=O)(=O)c4cccc(C#N)n4)cc3[nH]2)c1N system="human Src enzyme (Homo sapiens)" observed_value=6.27

Query block: Request: pIC50, test system human Src enzyme (Homo sapiens), entry COc1cc2cc(C(=O)c3cnn(-c4cnc(Oc5ccccc5F)cc4C)c3N)[nH]c2cc1NS(=O)(=O)CCCF
Result block: 7.12
